- MEASUREMENT_TARGET: Ecm22 (UniProt Q05958)
- Sequence: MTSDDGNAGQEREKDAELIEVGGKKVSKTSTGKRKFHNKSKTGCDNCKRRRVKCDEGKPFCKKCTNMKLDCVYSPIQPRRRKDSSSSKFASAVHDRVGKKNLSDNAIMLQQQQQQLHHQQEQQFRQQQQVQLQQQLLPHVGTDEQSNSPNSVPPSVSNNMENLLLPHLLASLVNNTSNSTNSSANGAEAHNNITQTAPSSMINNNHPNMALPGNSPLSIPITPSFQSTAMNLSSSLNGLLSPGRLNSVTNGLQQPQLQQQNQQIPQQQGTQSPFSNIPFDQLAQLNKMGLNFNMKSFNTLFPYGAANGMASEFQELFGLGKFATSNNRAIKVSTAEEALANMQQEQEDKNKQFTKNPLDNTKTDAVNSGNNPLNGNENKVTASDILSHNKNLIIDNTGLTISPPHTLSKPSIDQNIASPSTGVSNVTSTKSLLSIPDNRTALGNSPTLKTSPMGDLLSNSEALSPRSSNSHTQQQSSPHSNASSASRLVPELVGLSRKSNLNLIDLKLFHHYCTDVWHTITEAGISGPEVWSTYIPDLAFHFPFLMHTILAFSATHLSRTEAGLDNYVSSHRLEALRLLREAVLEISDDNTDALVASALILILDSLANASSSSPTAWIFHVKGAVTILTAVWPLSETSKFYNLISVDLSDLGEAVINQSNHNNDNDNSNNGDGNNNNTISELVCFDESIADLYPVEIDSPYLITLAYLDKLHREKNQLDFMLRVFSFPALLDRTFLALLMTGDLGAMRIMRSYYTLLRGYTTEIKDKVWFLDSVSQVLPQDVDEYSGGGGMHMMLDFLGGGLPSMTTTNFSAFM
- TEST_METHOD_NOTES: PBM E-score (8-mer binding enrichment) (E-score (-0.5 to 0.5)); higher = stronger / more preferred TF binding
- TEST_SETTINGS: protein concentration: 200 nM; construct: GST-full length
In all, about 33,000 sequences were measured (“E-score (-0.5 to 0.5)”: median about -0.041, highest 2% from about 0.37 on). Only a selection was taken, and the highest values are over-represented in it overall.
Label not satisfied if PBM E-score falls below 0.07; label satisfied in every other case.

[[record]]
seq_string = "AACGAATG"
answer_label = "satisfied"

[[record]]
seq_string = "ACGTACAG"
answer_label = "satisfied"

[[record]]
seq_string = "CCACTCGC"
answer_label = "satisfied"

[[record]]
seq_string = "CAGGCCTA"
answer_label = "not satisfied"

[[record]]
seq_string = "AGTTTAGA"
answer_label = "not satisfied"

[[record]]
seq_string = "AGTTTAGC"
answer_label = "not satisfied"

[[record]]
seq_string = "AAAAACTG"
answer_label = "not satisfied"

[[record]]
seq_string = "AGGACCAT"
answer_label = "not satisfied"

[[record]]
seq_string = "CAGTACAA"
answer_label = "not satisfied"

[[record]]
seq_string = "CCGTACAA"
answer_label = "satisfied"

[[record]]
seq_string = "AACGAATA"
answer_label = "satisfied"

[[record]]
seq_string = "CGTTTAGA"
answer_label = "satisfied"

[[record]]
seq_string = "GCCTTTAA"
answer_label = "not satisfied"

[[record]]
seq_string = "CGCAAGCC"
answer_label = "satisfied"

[[record]]
seq_string = "ACCGAATA"
answer_label = "satisfied"

[[record]]
seq_string = "ACCCCCCA"
answer_label = "not satisfied"

[[record]]
seq_string = "ACGTACAA"
answer_label = "satisfied"

[[record]]
seq_string = "CGTTTGGA"
answer_label = "satisfied"

[[record]]
seq_string = "CCGTACAG"
answer_label = "satisfied"

[[record]]
seq_string = "CGGTACAA"
answer_label = "satisfied"

[[record]]
seq_string = "TCGAGCGA"
answer_label = "not satisfied"

[[record]]
seq_string = "CGTTTGGC"
answer_label = "satisfied"

